B1: VAMP4 (parent)
chain: IMALVAAILLLVIIILIVMKYRT

Variants of: B1
Assay: protein stability index of a GFP-peptide fusion (GPS, HEK-293T) (PSI 1-6); higher = more stable;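 note: lentivirally expressed fusions sorted by FACS into six bins by GFP to DsRed ratio, PSI derived from sequencing read proportions per bin multiplied by bin number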
Conditions: c terminus: native
Reported protein stability index by item:
Format: numeric value only, no unit, no commentary.

Use these answered entries as a reference point.
>>> recordedvalue("A7K")
3.15
>>> recordedvalue("A7Q")
1.91
>>> recordedvalue("M2F")
3.53
>>> recordedvalue("V18K")
1.68
>>> recordedvalue("L4A")
3.08

Which value of protein stability index has been reported for L16F in the records?
3.6

Input I17W
2.44

Input K20H
3.54

Input I15M
2.88

Input L16H
3.18

Input I15H
1.69

Input A6L
3.39

Input A3P
2.9

Input I1Y
3.52
